# System: CACO-2 cells
# MEASUREMENT_PROTOCOL: CACO-2 cell apparent permeability (Papp), BBB model
# CONDITION_INFO: CACO-2 monolayers in Transwells, 30 minutes at 37° C., donor to acceptor
MEASUREMENT_TYPE: Papp (×10⁻⁶ cm/s)
Answer with a number only, understood to be in ×10⁻⁶ cm/s.

// below: answered molecules
| MOLECULE | RESULT |
| --- | --- |
| O=C[C@H](O)[C@@H](O)[C@H](O)[C@H](O)CO [^14C-Glucose, ^14C-glucose] | 57.9 |
| CN1C(=O)CN=C(c2ccccc2)c2cc(Cl)ccc21 [^14C-diazapam, ^14C-diazepam] | 24.4 |
| OCC(O)C(O)C(O)C(O)[14CH2]O (stereo not shown) [^14C-mannitol] | 3.63 |

Now examine the next entry.
Lab note: record Papp of `Cc1cc(-c2nc3cc([125I])ccc3s2)ccc1N` tested on CACO-2 cells.
13.7

Origin of measurements: patent US20050123477A1
